Source: patent US20240270751A1

Below is a list of entries, each paired with its recorded IC50 value.
- system: DGKζ (Homo sapiens (Human))
- protocol-description: Biochemical DGK IC50 assay, DGKζ ADP-Glo assay
- experimental-context: 0.5 nM enzyme, 140 μM ATP, 80 μM DAG; read-out: DGKζ ADP-Glo assay IC50

• CC(c1ccc2ncc(CO)nc2c1)N1C[C@H](C)N(c2cc(=O)n(C)c3cn(CC#N)nc23)C[C@H]1C (single isomer, unassigned) [Compound A309a] = > 10 µM
• CC(c1ccc2nccnc2c1)N1C[C@H](C)N(c2cc(=O)[nH]c3cn(CC#N)nc23)C[C@H]1C (single isomer, unassigned) [Compound A260] = 0.394 µM

Quickly give me recorded IC50 for CCOc1cc(F)ccc1C(C)N1C[C@H](CC)N(c2cc(=O)n(C)c3cn(CC#N)nc23)C[C@H]1CC (stereo partly drawn)
0.696 µM

====

- system: DGKζ (Homo sapiens (Human), UniProt Q13574)
- Sequence (Q13574 other isoform, or with tags, fused parts or gaps): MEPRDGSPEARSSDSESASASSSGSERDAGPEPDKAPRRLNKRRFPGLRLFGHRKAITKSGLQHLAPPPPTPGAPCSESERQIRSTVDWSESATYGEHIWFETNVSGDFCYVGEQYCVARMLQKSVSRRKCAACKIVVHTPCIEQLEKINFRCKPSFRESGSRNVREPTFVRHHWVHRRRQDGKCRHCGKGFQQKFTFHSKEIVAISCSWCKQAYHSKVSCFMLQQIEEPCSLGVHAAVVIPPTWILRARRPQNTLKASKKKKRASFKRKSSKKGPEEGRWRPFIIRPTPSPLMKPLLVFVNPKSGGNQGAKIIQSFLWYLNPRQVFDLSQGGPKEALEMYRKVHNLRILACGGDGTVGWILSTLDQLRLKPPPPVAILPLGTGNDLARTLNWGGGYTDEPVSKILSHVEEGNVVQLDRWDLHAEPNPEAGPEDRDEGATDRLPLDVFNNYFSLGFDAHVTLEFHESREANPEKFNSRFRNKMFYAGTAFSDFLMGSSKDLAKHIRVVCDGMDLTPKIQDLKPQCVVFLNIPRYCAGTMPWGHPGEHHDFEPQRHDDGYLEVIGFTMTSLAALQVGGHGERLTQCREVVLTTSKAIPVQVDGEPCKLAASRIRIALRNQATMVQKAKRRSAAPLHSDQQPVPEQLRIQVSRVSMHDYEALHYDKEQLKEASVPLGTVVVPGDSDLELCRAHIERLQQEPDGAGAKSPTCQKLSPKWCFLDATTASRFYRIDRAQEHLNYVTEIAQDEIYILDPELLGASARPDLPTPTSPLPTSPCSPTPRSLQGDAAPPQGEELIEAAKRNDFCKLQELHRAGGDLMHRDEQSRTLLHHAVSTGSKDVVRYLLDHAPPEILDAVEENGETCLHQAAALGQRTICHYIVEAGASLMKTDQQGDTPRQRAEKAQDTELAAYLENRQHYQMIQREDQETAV
- protocol-description: Biochemical DGK IC50 assay, DGKζ ADP-Glo assay
- experimental-context: 0.5 nM enzyme, 140 μM ATP, 80 μM DAG; read-out: DGKζ ADP-Glo assay IC50
Under this convention, fulfilled denotes IC50 strictly below 200 nM and not fulfilled denotes IC50 at or above 200 nM.

These recorded examples may help you get a feel for the data.
* Cc1nc2c(C(C)N3C[C@H](C)N(c4cc(=O)n(C)c5cn(CC#N)nc45)C[C@H]3C)cccc2o1 (stereo partly shown) | not fulfilled
* CC[C@H]1CN(C(C)c2ccc(F)cn2)[C@H](CC)CN1c1cc(=O)n(C)c2cn(CC#N)nc12 (single isomer, unassigned) [Compound A74b] | not fulfilled
* CC[C@H]1CN(C(C)c2ccc3ccccc3c2)[C@H](CC)CN1c1cc(=O)n(C)c2cn(CC#N)nc12 (stereo partly shown) | not fulfilled
* CC[C@H]1CN(C(C)c2ccc(F)nc2)[C@H](CC)CN1c1cc(=O)n(C)c2cn(CC#N)nc12 (single isomer, unassigned) [Compound A353a] | fulfilled

A record lists Cc1cnc2cc([C@H](C)N3C[C@H](C)N(c4cc(=O)n(C)c5cn(CC#N)nc45)C[C@H]3C)ccc2n1 (single isomer, unassigned) [Compound A269a] . Is its IC50 below 200 nM?
not fulfilled

Given CC[C@H]1CN(C(C)c2cnc(OC(C)C)cc2F)[C@H](CC)CN1c1cc(=O)n(C)c2cn(CC#N)nc12 (stereo partly shown) , is recorded IC50 strictly lower than 200 nM?
not fulfilled

Given the entry CC(c1ccc2c(c1)OC(C)(C)CO2)N1C[C@H](C)N(c2cc(=O)n(C)c3cn(CC#N)nc23)C[C@H]1C (single isomer, unassigned) [Compound A46f] , would its reported IC50 be below 200 nM?
not fulfilled

====

- system: DGKζ (Homo sapiens (Human), UniProt Q13574)
- protocol-description: Biochemical DGK IC50 assay, DGKζ ADP-Glo assay
- experimental-context: 0.5 nM enzyme, 140 μM ATP, 80 μM DAG; read-out: DGKζ ADP-Glo assay IC50
# strict inequality: IC50 < 0.5 µM yields met, everything else yields not met

Here are 3 compounds together with their reported answers.
• CC[C@H]1CN([C@H](C)c2ccc3nccnc3c2)[C@H](CC)CN1c1cc(=O)n(CC(F)(F)F)c2cn(CC#N)nc12 [Compound A124] = not met
• CC(c1ccc2nc(O)cnc2c1)N1C[C@H](C)N(c2cc(=O)n(C)c3cn(CC#N)nc23)C[C@H]1C (stereo partly drawn) [Compound A284] = not met
• CC[C@H]1CN(C(C)c2ccc(C)c(C)c2)[C@H](CC)CN1c1cc(=O)n(C)c2cn(CC#N)nc12 (stereo partly drawn) [Compound A384] = met

Does this compound meet the criterion IC50 < 0.5 µM? CC[C@H]1CN(C(C)c2cnc3ccccc3c2)[C@H](CC)CN1c1cc(=O)n(C)c2cn(CC#N)nc12 (stereo partly drawn) [Compound A56]
met

Here's an entry: CC[C@@H]1CN(c2c(C#N)c(=O)[nH]c3cn(CC#N)nc23)[C@@H](C)CN1C(C)c1ccc2nccnc2c1 (single isomer, unassigned) [Compound A200a] . Is its IC50 below 0.5 µM?
met

# check: IC50 < 0.5 µM for CC[C@@H]1CN(c2cc(=O)n(C)c3cn(CC#N)nc23)[C@@H](CC)CN1C(=O)c1cccc(C(F)(F)F)c1 [Compound A206]
not met

Quick check: does Cc1cnc2ccc(C(C)N3C[C@H](C)N(c4cc(=O)n(C)c5cn(CC#N)nc45)C[C@H]3C)cc2n1 (stereo partly drawn) [Compound A269 (RII)] have IC50 under 0.5 µM?
met

State whether 0.5 µM exceeds IC50 recorded for CC[C@H]1CN(C(C)c2ccc(C(F)(F)F)cc2)[C@H](CC)CN1c1cc(=O)n(C)c2cn(CC#N)nc12 (mixture of isomers) [Compound A103] .
met

Here's an entry: CC[C@H]1CN(C(C)c2ncccn2)[C@H](CC)CN1c1cc(=O)n(C)c2cn(CC#N)nc12 (stereo partly drawn) [Compound A130] . Is its IC50 below 0.5 µM?
not met

# TODO verify IC50 < 0.5 µM strictly for this compound: CC[C@H]1CN(C(C)c2ccc(F)cc2)[C@H](CC)CN1c1cc(=O)n(C)c2cn(CC#N)nc12 (stereo partly drawn) [Compound A67]
met

Dear colleague, could you confirm whether IC50 of CC[C@H]1CN(C(C)c2ccc(F)cc2OC)[C@H](CC)CN1c1cc(=O)n(CCO)c2cn(CC#N)nc12 (single isomer, unassigned) [Compound A153b] falls below 0.5 µM? Thanks.
not met

Please state whether IC50 is below 0.5 µM for CC[C@H]1CN(C(C)c2c(F)cc(F)cc2OC)[C@H](CC)CN1c1cc(=O)n(C)c2cn(CC#N)nc12 (single isomer, unassigned) [Compound A201b]
not met

I wonder whether C=CCn1cc2c(n1)c(N1C[C@@H](C)N([C@@H](C)c3ccc4ncc(C)nc4c3)C[C@@H]1C)cc(=O)n2C [Compound A301] has IC50 below 0.5 µM. Can you tell?
met

# strict comparison: is reported IC50 < 0.5 µM? input = CC[C@H]1CN(C(C)c2ccc(C(N)=O)cc2)[C@H](CC)CN1c1cc(=O)n(C)c2cn(CC#N)nc12 (single isomer, unassigned) [Compound A120a]
not met

API: query returns whether the compound falls strictly under 0.5 µM in IC50. Query: CC(c1ccc(F)cc1P(C)(C)=O)N1C[C@H](C)N(c2cc(=O)n(C)c3cn(CC#N)nc23)C[C@H]1C (stereo partly drawn) [Compound A285]
not met

====

Listing: log10 of IC50 of selected compounds
- system: DGKζ (Homo sapiens (Human))
- protocol-description: Biochemical DGK IC50 assay, DGKζ ADP-Glo assay
- experimental-context: 0.5 nM enzyme, 140 μM ATP, 80 μM DAG; read-out: DGKζ ADP-Glo assay IC50
Log10 applied to IC50; unit prior to transform: nM.

Sample records with log10 of IC50:
* CC[C@H]1CN(C(C)c2ncc(C(F)(F)F)cc2F)[C@H](CC)CN1c1cc(=O)n(C)c2cn(CC#N)nc12 (single isomer, unassigned) [Compound A354b] | 2.41
* CC[C@H]1CN(C(C)c2ccc(C(F)(F)F)cn2)[C@H](CC)CN1c1cc(=O)n(C)c2cn(CC#N)nc12 (single isomer, unassigned) [Compound A348a] | 3.59
* CC[C@H]1CN(C(C)c2cnc(C)c(C)n2)[C@H](CC)CN1c1cc(=O)n(C)c2cn(CC#N)nc12 (single isomer, unassigned) [Compound A355b] | 2.25
* CC[C@H]1CN(C(C)c2ccc(F)cc2C(F)F)[C@H](CC)CN1c1cc(=O)n(C)c2cn(CC#N)nc12 (single isomer, unassigned) [Compound A172b] | 1.15
* Cc1cnc2ccc([C@H](C)N3C[C@H](C)N(c4c(C#N)c(=O)n(C)c5cn(CC#N)nc45)C[C@H]3C)cc2n1 [Compound A318] | 1.18

Given the compound C=C(C)n1cc2c(n1)c(N1C[C@@H](CC)N(C(C)c3ccc4nccnc4c3)C[C@@H]1CC)cc(=O)n2C (some centres unmarked) [Compound A25] , write its reported log10 of IC50.
2.71

Input C[C@@H]1CN(c2c(Cl)c(=O)n(C)c3cn(CC#N)nc23)[C@@H](C)CN1[C@@H](C)c1ccc2nccnc2c1 [Compound A133] , output reported log10 of IC50.
3.97

State, in one line, measured log10 of IC50 of CC[C@H]1CN(C(C)c2cnc(Cl)cc2C(F)(F)F)[C@H](CC)CN1c1cc(=O)n(C)c2cn(CC#N)nc12 (some centres unmarked) [Compound A226]
3.36

For CC(c1ccc2nccnc2c1)N1C[C@H](CO)N(c2cc(=O)n(C)c3cn(CC#N)nc23)C[C@H]1C (some centres unmarked) [Compound A101] , write its log10 of IC50.
2.85

# return recorded log10 of IC50 for entry CC(c1ccc2nccnc2c1)N1CCN(c2cc(=O)n(C)c3cn(CC#N)nc23)C[C@@H]1C (some centres unmarked) [Compound A178]
3.84

Please report log10 of IC50 for the following compound: C[C@@H]1CN(c2cc(=O)n(C)c3c(Cl)n(CC#N)nc23)[C@@H](C)CN1[C@H](C)c1ccc2nccnc2c1 [Compound A263]
1.93
